- test_protocol: GSK_TCMDC: Inhibition Frequency Index (IFI). The number of non-kinase HTS assays where a compound showed > 50 % inhibition, expressed as a percentage of the number of such assays in which the compound was tested
- Type: functional
Whole data set: some 13,000 compounds, median “IFI” near 4, cut for the highest 2% near 17. The list comes from a sample in which the highest values are over-represented; it also holds close analogues and randomly drawn compounds.
Use 10% as the dividing line for IFI, with the line itself on the 1.0 side and lower values as 0.0.

Answered cases to consult:
>>> class("CC(C)COc1ccc(Cl)cc1Cc1ccc(-c2nc3cc(F)c(F)cc3[nH]2)o1")
1.0
>>> class("CC(C)COc1ccc(Cl)cc1Cc1ccc(-c2nc3cc(CCN4CCCC4)ccc3[nH]2)o1")
1.0
>>> class("Cc1ccc2c(c1)c(C1CCN(C(=O)c3ccc([N+](=O)[O-])o3)CC1)cn2C")
0.0
>>> class("CNCc1cccc2nc(-c3ccc(Cc4cc(Cl)ccc4OCC(C)C)o3)[nH]c12")
1.0
>>> class("CC(C)COc1ccc(Cl)cc1Cc1ccc(-c2nc3cc(CCN(C)C)ccc3[nH]2)o1")
1.0

Prompt: Is IFI at least 10%? Consider `CN1CCN(c2ccc3[nH]c(-c4ccc(Cc5cc(Cl)ccc5OCc5ccccc5)o4)nc3c2)CC1`
Response: 1.0

Prompt: Has `CC(C)COc1ccc(Cl)cc1Cc1nc(-c2nc3ccc(CN4CCN(C)CC4)cc3[nH]2)co1` a recorded IFI greater than or equal to 10%?
Response: 0.0

Prompt: Please indicate if the recorded IFI for CCC(COCc1ccc(Cl)cc1)N(C)CCN(C)C(CC)COCc1ccc(Cl)cc1 (centres undefined) meets or exceeds 10%.
Response: 1.0

====

- test_protocol: GSK_TCMDC: Inhibition Frequency Index (IFI). The number of non-kinase HTS assays where a compound showed > 50 % inhibition, expressed as a percentage of the number of such assays in which the compound was tested
- Type: functional
Whole data set: some 13,000 compounds, median “IFI” near 4, cut for the highest 2% near 17. This excerpt belongs to a sample that is enriched for the highest values.
assay_readout: IFI (%)
Supply the numeric figure in %, leaving out any unit text.

Here is how some compounds turned out for IFI.
>>> data_value("Cc1ccc(C)c(NC(=O)Nc2ccc(C)c(-c3ccc(C(=O)Nc4ccncc4)cc3)c2)c1")
14.1
>>> data_value("Cc1ccc(NC(=O)Nc2ccc(Cl)c(C(F)(F)F)c2)cc1-c1ccc(C(=O)NCCN2CCOCC2)cc1")
13.2
>>> data_value("Cc1cccc2nc(-c3ccc(-c4cccc(NC(=O)Nc5ccc(F)c(F)c5F)c4)cc3)[nH]c12")
2.91
>>> data_value("O=C(Nc1ccc(Cl)c(Cl)c1)Nc1cc(C(F)(F)F)ccc1Cl")
5.71
>>> data_value("Cc1cc(NCCC(=O)NCCc2ccccc2)nc(NCCc2ccc(F)cc2)n1")
4.55

Prompt: Using the record for `COc1ccc(-c2cc(C(=O)N[C@@H](CC3CCCCC3)C(=O)NCCN3CCCC3)ccc2O)cc1` , report its IFI.
Response: 3.45

Prompt: # IFI lookup, item `O=C(Nc1cccc(C(F)(F)F)c1)Nc1ccc(Cl)c(Cl)c1`
Response: 16.1

Prompt: Query: IFI; subject: `CCN(CC)CCN(Cc1ccc(-c2ccc(C(F)(F)F)cc2)cc1)C(=O)Cn1c(SCc2ccc(F)cc2)cc(=O)c2ccccc21`
Response: 7.64

Prompt: I would be grateful if you could share the reported IFI for `CC(C)COc1ccc(Cl)cc1Cc1ccc(-c2nc3cc(N4CCN(C)CC4)ccc3[nH]2)o1` .
Response: 17.2

Prompt: # lookup: IFI of O=C(Cc1ccccc1)NC(c1ccco1)c1cc(Cl)c2cccnc2c1O (stereo unspecified)
Response: 8

Prompt: Suppose we examine the compound CCC(=O)NC(c1ccco1)c1cc(Cl)c2cccnc2c1O (stereo unspecified) ; what IFI value has been reported?
Response: 4.35

Prompt: Request the reported IFI associated with CCCNCc1ccc(-c2ccc(CN(CC3CCCO3)C(=O)C3CC(=O)c4ccccc43)cc2)nc1 (stereo unspecified)
Response: 1.41

Prompt: Value lookup for IFI; key = `O=C(Nc1ccc(SC(F)(F)F)cc1)Nc1ccc(Cl)c(Cl)c1`
Response: 18.7

Prompt: Fill blank: measured IFI of the compound `COc1ccc(CCNCCCCCNCCCc2ccc(Cl)cc2)cc1OC` is ____.
Response: 2.8

Prompt: Entry under review: `CCCCCCCNc1cc(C)nc2ccc(OC)cc12` . Reported IFI?
Response: 7.3

Prompt: Consider the compound C=CCOC(=O)N1CCC(CNCc2ccc(-c3ccc(-c4nc5ccccc5[nH]4)s3)cc2)C1 (stereo unspecified) and give its measured IFI.
Response: 11

Prompt: // lookup IFI for `Cc1ccc(NC(=O)c2ccc(N3CCN(c4ccncc4)CC3)cc2)cc1F`
Response: 6.9

Prompt: So what's the measured IFI for this one? `Cc1ccc(NC(=O)Nc2ccccc2F)cc1-c1ccc(C(=O)Nc2ccncc2)cc1`
Response: 26.4

Prompt: Give the measured IFI of `CCOC(=O)c1c(-c2ccccc2)nc2c(sc3ccccc32)c1O` .
Response: 1.48

Prompt: Requested field: IFI. Item: `O=C(Nc1cccc(C(F)(F)F)c1)Nc1ccc2nonc2c1`
Response: 22.5

Prompt: Which IFI value belongs to `COc1ccc(CCCCN2C(=O)C(c3ccccc3)(c3ccccc3)N=C2N)cc1` ?
Response: 7.69

====

Listed compounds paired with reported IFI
- test_protocol: GSK_TCMDC: Inhibition Frequency Index (IFI). The number of non-kinase HTS assays where a compound showed > 50 % inhibition, expressed as a percentage of the number of such assays in which the compound was tested
- Assay type: functional
Whole data set: some 13,000 compounds, median “IFI” near 4, cut for the highest 2% near 17. The list comes from a sample in which the highest values are over-represented; it also holds close analogues and randomly drawn compounds.
Give the number; % is assumed, so skip it.

>>> data_value("Cc1cc(N[C@@H](Cc2ccccc2)C(=O)NCCOc2ccccc2)nc(NCCOc2ccccc2)n1")
24.4
>>> data_value("Cc1cc(N[C@@H](Cc2ccccc2)C(=O)NCc2cccs2)nc(NCC2CCCCC2)n1")
16.3
>>> data_value("CC(C)(C)N1CCC(N(Cc2ccc(-c3ccc(C(F)(F)F)cc3)cc2)C(=O)Cn2c(CCc3cccc(F)c3F)nc(=O)c3cccnc32)CC1")
16.7
>>> data_value("Cc1cccc(CNc2nc(C)cc(N[C@@H](CC(C)C)C(=O)NCc3cccc(F)c3)n2)c1")
9.52
>>> data_value("CCc1ccc(CN2CCC(CNC(=O)c3cc(-c4cccc(Cl)c4)cs3)C2)cc1 (centres undefined)")
8.16
>>> data_value("CC1(C)CCC(C)(C)c2c1ccc(C1CCN(CCCCNC(=O)c3ccc(-c4ccc(Cl)cc4)cc3)CC1)c2O")
13.7

Prompt: State the recorded IFI for this entry: `Cc1cc(N[C@@H](CC(C)C)C(=O)NCCc2ccccc2)nc(NCC2CCCCC2)n1`
Response: 16.3

Prompt: Fill in the blank: the reported IFI of `Cc1ccc(CNC(=O)[C@H](Cc2ccccc2)Nc2cc(C)nc(NCc3ccccc3C)n2)cc1` is ____.
Response: 4.88

Prompt: Can you share its IFI? I mean this compound: `Cc1ccc(CNC(=O)[C@H](CCCN)Nc2cc(C)nc(NCC3CCCCC3)n2)cc1`
Response: 4.88

====

- test_protocol: GSK_TCMDC: Inhibition Frequency Index (IFI). The number of non-kinase HTS assays where a compound showed > 50 % inhibition, expressed as a percentage of the number of such assays in which the compound was tested
- Type: functional
Whole data set: some 13,000 compounds, median “IFI” near 4, cut for the highest 2% near 17. The full list was thinned out, with the highest values kept by preference.
Each entry belongs to exactly one class, chosen by where its IFI falls: bin 0 = under 4%, bin 1 = from 4% up to 7%, bin 2 = 7% and over

Previously resolved entries follow.
>>> class("Cc1[nH]c(C)c(-c2ccc(-c3ccc(Cl)cc3)nc2)c(=O)c1Cl")
"bin 0"
>>> class("CN(C)c1ccc(CN2CCC(CNC(=O)c3cc(-c4cccc(F)c4)cs3)C2)cc1 (stereo not given)")
"bin 1"
>>> class("CCCN(CCC)C(=O)c1cc(C(=O)N[C@@H](Cc2ccccc2)[C@H](O)CNC(C)(C)c2cccc(OC)c2)cc(N2CCCCS2(=O)=O)c1")
"bin 0"

Prompt: Band for `Cc1cc2cc(-c3ccc(CN)cc3)ccc2nc1N` ?
Response: bin 0

Prompt: Bin this entry: CCCNS(=O)(=O)c1ccc(NC(=O)C(C)Oc2ccc([N+](=O)[O-])cc2)cc1 (stereo not given)
Response: bin 2

Prompt: Given `COc1ccc(-c2cncc3ccc(C(=O)NCc4ccncc4)nc23)cc1` , name the class its IFI places it in.
Response: bin 1

Prompt: Which category fits this record: `CN1CCN(S(=O)(=O)c2cccc(Nc3nccc(N(C)c4ccc5c(c4)nc(NC(=O)c4cccs4)n5C)n3)c2)CC1`
Response: bin 0

Prompt: Lab log: `O=C(NCCc1ccccc1)N(Cc1ccc(-c2cccc(CN3CCNCC3)c2)cc1)C1CCN(Cc2ccccc2)CC1` — assign IFI category
Response: bin 1

Prompt: Assign a category based on measured IFI for CCC(C)c1ccc(NC(=O)C(C)c2ccc([N+](=O)[O-])cc2)cc1 (stereo not given) and give only the class name.
Response: bin 2

Prompt: For the record `CCN(CC)c1ccc(C(c2ccc(N(CC)CC)cc2)c2ccc([N+](=O)[O-])cc2)cc1` , report the class its IFI corresponds to.
Response: bin 1
